# Tested on: DU145 (human prostate cancer cells)
# experimentDescription: Anti-proliferative activity on DU145 cell line (WST1 colorimetric test)
# Format: cell-based
# testSettings: DU-145, treated for 96 hours, read-out: IC50 on the cell proliferation of the DU145 lines
Where a name gives a salt, the structure may show the parent alone.
observable: IC50

Q: Returns the measured IC50 for the input compound. Input: N[C@@H](CSSC[C@H](N)C(=O)N1CCn2nc(-c3ccc(Cl)cc3Cl)cc2C1CCc1ccccc1)C(=O)N1CCn2nc(-c3ccc(Cl)cc3Cl)cc2C1CCc1ccccc1 (mixture of isomers) [Example 22, hydrochloride]
A: ≤ 20 µM

Q: Now consider CCCCC1c2cc(-c3ccccc3)nn2CCN1C(=O)[C@@H](N)CSSC[C@H](N)C(=O)N1CCn2nc(-c3ccccc3)cc2C1CCCC (mixture of isomers) [Example 21, hydrochloride] .
A: ≤ 20 µM

Q: And for N[C@@H](CSSC[C@H](N)C(=O)N1CCn2nc(-c3ccc4c(c3)OCO4)cc2C1CCc1ccccc1)C(=O)N1CCn2nc(-c3ccc4c(c3)OCO4)cc2C1CCc1ccccc1 (mixture of isomers) [Example 16, hydrochloride] ?
A: ≤ 20 µM

Q: Moving on to the next compound: N[C@@H](CSSC[C@H](N)C(=O)N1CCn2nc(-c3ccccc3)cc2C1CC1CCCCC1)C(=O)N1CCn2nc(-c3ccccc3)cc2C1CC1CCCCC1 (mixture of isomers) [Example 12, hydrochloride]
A: ≤ 10 µM
